- System: Vero E6 infected with SARS-CoV-2
- PROTOCOL_DESCRIPTION: inhibition of SARS-CoV-2 cytopathic effect; higher = more antiviral protection, active = above 15
- STUDY_CONDITIONS: 100 nM; 48 h
QUANTITY_KIND: inhibition of SARS-CoV-2 cytopathic effect (%)
Enter your answer as a number in %; do not include the unit.

inhibition of SARS-CoV-2 cytopathic effect of NS(=O)(=O)c1cc(Cl)c(Cl)c(S(N)(=O)=O)c1 [diclofenamide] on Vero E6 infected with SARS-CoV-2?
-3.44

inhibition of SARS-CoV-2 cytopathic effect of C#C[C@]1(O)CC[C@H]2[C@@H]3CCC4=CC(=O)CC[C@@H]4[C@H]3CC[C@@]21C [Norethindrone (Norethisterone)] on Vero E6 infected with SARS-CoV-2?
-1.69

inhibition of SARS-CoV-2 cytopathic effect of CCCCCCCCCCC[C@@H](C[C@@H]1OC(=O)[C@H]1CCCCCC)OC(=O)[C@H](CC(C)C)NC=O [orlistat] on Vero E6 infected with SARS-CoV-2?
0.9

inhibition of SARS-CoV-2 cytopathic effect of O=C(O)CCCCC(CCSCc1ccccc1)SCc1ccccc1 (centres undefined) on Vero E6 infected with SARS-CoV-2?
3.04

inhibition of SARS-CoV-2 cytopathic effect of O=C(O)[C@]1(Cc2cccc(Nc3nccs3)n2)CC[C@@H](Oc2cccc(Cl)c2F)CC1 on Vero E6 infected with SARS-CoV-2?
-0.82

====

- System: Vero E6 infected with SARS-CoV-2
- PROTOCOL_DESCRIPTION: SARS-CoV-2 infection rate relative to infected DMSO; higher = more infection, active = 60 or less
- STUDY_CONDITIONS: 24 h
SARS-CoV-2 infection rate values by entry
Enter your answer as a number in %; do not include the unit.

1. OC[C@H]1OC(O)[C@H](O)[C@@H](O)[C@@H]1O (some centres undefined) [dextrose] (10 µM)	110
2. C[C@H](C[C@H](N)C(=O)O)C(=O)O (10 µM)	108

Bench note: what SARS-CoV-2 infection rate did CCOc1cc2ncc(C#N)c(Nc3ccc(OCc4ccccn4)c(Cl)c3)c2cc1NC(=O)/C=C/CN(C)C [neratinib] (10 µM) show?
102

Bench note: what SARS-CoV-2 infection rate did O=C1C=CC(=O)C2=C1C1c3ccccc3C2c2ccccc21 (10 µM) show?
102

Bench note: what SARS-CoV-2 infection rate did O=C(Nc1ccc(Oc2ccc(Cl)cn2)c(Cl)c1)c1ccccn1 (10 µM) show?
102

Bench note: what SARS-CoV-2 infection rate did COc1ncc2cc(C(=O)Nc3cc(C(=O)NCc4cccc(Cl)c4)ccc3Cl)c(=O)[nH]c2n1 (10 µM) show?
110

Bench note: what SARS-CoV-2 infection rate did CCNC(=O)CC[C@H](N)C(=O)O [L-theanine] (10 µM) show?
102

Bench note: what SARS-CoV-2 infection rate did Cn1c(=O)c(F)c(Nc2ccc(I)cc2F)c2c(=O)n(C[C@@H](O)CO)cnc21 (0.833333 µM) show?
109

Bench note: what SARS-CoV-2 infection rate did OC[C@@H](O)[C@@H](O)[C@H](O)[C@@H](O)CO [sorbitol] (10 µM) show?
110

====

- System: Vero E6 infected with SARS-CoV-2
- PROTOCOL_DESCRIPTION: morphology score (similarity to uninfected cells); higher = more like uninfected cells
- STUDY_CONDITIONS: 24 h
Assign 1.0 whenever morphology score does not fall below -0.02; assign 0.0 whenever it does.

1) CC(=O)SCCC(=O)N1[C@H](C)CCC[C@@H]1C(=O)O [methiopril] (10 µM)	1.0
2) CCOC(=O)CNC(=O)[C@@H]1CCCN1C(=O)Cc1ccccc1 (10 µM)	0.0
3) N#Cc1ccnc(N2C(=O)CC[C@H]2C(=O)N(c2cncc(F)c2)[C@H](C(=O)NC2CC(F)(F)C2)c2ccccc2Cl)c1 [ivosidenib] (10 µM)	1.0

Could you please find out whether Cc1ccc(S(=O)(=O)NC2c3ccccc3Oc3ccccc32)cc1 (10 µM) has morphology score that meets -0.02 or exceeds it?
1.0

Could you please find out whether COc1cccc([C@H](O)C2CCN(CCc3ccc(F)cc3)CC2)c1OC [volinanserin] (10 µM) has morphology score that meets -0.02 or exceeds it?
0.0

Could you please find out whether COc1ccc(NS(=O)(=O)c2ccc(N)cc2)nn1 [sulfamethoxypyridazine] (10 µM) has morphology score that meets -0.02 or exceeds it?
1.0

Could you please find out whether OC[C@H]1O[C@@H](Oc2cc3c(O)cc(O)cc3[o+]c2-c2ccc(O)c(O)c2)[C@H](O)[C@@H](O)[C@@H]1O [kuromanin] (10 µM) has morphology score that meets -0.02 or exceeds it?
0.0

Could you please find out whether CCCCC(=O)O[C@]1(C(=O)CO)[C@@H](C)C[C@H]2[C@@H]3CCC4=CC(=O)C=C[C@]4(C)[C@@]3(F)[C@@H](O)C[C@@]21C (10 µM) has morphology score that meets -0.02 or exceeds it?
0.0

Could you please find out whether O=S(=O)(F)Cc1ccccc1 [phenylmethylsulfonyl-fluoride] (10 µM) has morphology score that meets -0.02 or exceeds it?
1.0

Could you please find out whether CC1=C(/C=C/C(C)=C/C=C/C(C)=C/CO)C(C)(C)CCC1 [retinol] (10 µM) has morphology score that meets -0.02 or exceeds it?
1.0
